# Test system: MEL-JUSO
# RUN DESCRIPTION: Cytotoxicity against human MEL-JUSO cells incubated for 2 hrs by cell titre blue viability assay
# Assay type: functional, cell-based
MEASURED ATTRIBUTE: pIC50
Worth noting: pIC50 values are minus log10 of concentrations stated in mol/L.

Given item COc1cccc2c1C(=O)c1c(O)c3c(c(O)c1C2=O)C[C@@](O)(CCO)C[C@@H]3O[C@H]1C[C@H](N)[C@H](O)[C@H](C)O1 , the value recorded as its pIC50 is 5.94

Given item COc1cccc2c1C(=O)c1c(O)c3c(c(O)c1C2=O)C[C@@](O)(C(=O)CO)C[C@@H]3O[C@H]1C[C@H](O)[C@H](N)[C@H](C)O1 , the value recorded as its pIC50 is 6.00

Given item COc1cccc2c1C(=O)c1c(O)c3c(c(O)c1C2=O)C[C@@](O)(C(=O)CO)C[C@@H]3O[C@H]1C[C@H](N2CCCC2)[C@H](O)[C@H](C)O1 , the value recorded as its pIC50 is 7.14

Given item COc1cccc2c1C(=O)c1c(O)c3c(c(O)c1C2=O)C[C@@](O)(C(=O)CO)C[C@@H]3O[C@H]1C[C@H](N2CCCCC2)[C@H](O)[C@H](C)O1 , the value recorded as its pIC50 is 7.11

Given item CC[C@@]1(O)C[C@H](O[C@H]2C[C@H](N(C)C)[C@H](O[C@H]3C[C@H](O)[C@H](O[C@H]4CCC(=O)[C@H](C)O4)[C@H](C)O3)[C@H](C)O2)c2c(cc3c(c2O)C(=O)c2c(O)cccc2C3=O)[C@H]1C(=O)OC , the value recorded as its pIC50 is 7.00
